# Test Target: CDK8/Cyclin C (Homo sapiens (Human))
# Sequence (P49336 whole entry): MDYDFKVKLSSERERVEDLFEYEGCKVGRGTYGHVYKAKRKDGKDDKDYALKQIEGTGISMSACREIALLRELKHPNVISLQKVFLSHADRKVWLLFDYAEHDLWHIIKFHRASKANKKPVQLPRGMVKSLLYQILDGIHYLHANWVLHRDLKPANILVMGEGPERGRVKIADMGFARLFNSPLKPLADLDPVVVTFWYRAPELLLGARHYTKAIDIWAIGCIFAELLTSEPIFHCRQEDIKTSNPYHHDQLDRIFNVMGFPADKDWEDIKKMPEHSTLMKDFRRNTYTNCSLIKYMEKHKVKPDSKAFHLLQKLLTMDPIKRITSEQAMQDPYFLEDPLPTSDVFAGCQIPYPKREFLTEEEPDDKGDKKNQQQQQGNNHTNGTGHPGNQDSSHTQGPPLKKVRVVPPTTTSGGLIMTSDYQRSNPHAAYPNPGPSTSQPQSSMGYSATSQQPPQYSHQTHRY
# Sequence (P24863 whole entry partner): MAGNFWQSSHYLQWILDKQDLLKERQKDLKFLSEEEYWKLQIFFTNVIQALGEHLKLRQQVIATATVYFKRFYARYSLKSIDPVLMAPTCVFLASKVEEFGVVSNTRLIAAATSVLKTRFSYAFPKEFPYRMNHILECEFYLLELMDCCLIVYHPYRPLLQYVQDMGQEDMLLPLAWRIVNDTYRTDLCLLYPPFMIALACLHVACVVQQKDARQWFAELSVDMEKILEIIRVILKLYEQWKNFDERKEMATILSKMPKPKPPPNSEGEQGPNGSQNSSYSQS
# Assay Name: LanthaScreen binding to recombinant CDK8/Cyclin C
# Condition Notes: TR-FRET, Tracer 236 10 nM, CDK8/Cyclin C 5 nM
Can you tell me pIC50 for the items I'm about to list?
Numbers only, as −log10 of the molar value.

CN1CCN(C(=O)Cn2cc(-c3ccc(-c4cnc(N)c5ncc(C(=O)N6CCC6)cc45)cc3)cn2)CC1; 9.00
COCCN(C)C(=O)c1cnc2c(N)ncc(-c3ccc(-c4cnn(CC(=O)N5CCN(C)CC5)c4)cc3)c2c1; 8.97
COCCn1cc(-c2ccc(-c3cnc(N)c4ncc(C(=O)N5CCN(C)CC5)cc34)cc2)cn1; 8.84

Proceed to the following item.
Inquiry: Requested field: pIC50. Item: COCCN(C)C(=O)c1cnc2c(N)ncc(-c3ccc(-c4cnn(CCOC)c4)cc3)c2c1
Reply text: 8.64
